- EXPERIMENTAL_SYSTEM: UniProtKB Q62226
- Sequence (Q62226 25-198 limits assumed): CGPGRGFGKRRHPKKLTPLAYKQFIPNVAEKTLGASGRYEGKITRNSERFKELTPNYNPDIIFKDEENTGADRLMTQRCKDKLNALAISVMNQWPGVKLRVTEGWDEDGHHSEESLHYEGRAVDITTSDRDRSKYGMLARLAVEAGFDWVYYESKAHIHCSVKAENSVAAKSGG
- TEST_SUMMARY: Inhibition of hedgehog signalling in mouse NIH3T3-Gli-luc cells after 48 hrs by dual luciferase reporter assay
This listing pairs molecules with measured IC50.
Please give a number only; it is taken to be in nM.

O=C(NC(=O)c1ccc(OCc2ccccc2F)cc1)Nc1ccc(Cl)c(-c2nc3ccccc3[nH]2)c1: 25
CS(=O)(=O)c1ccc(C(=O)Nc2ccc(Cl)c(-c3ccccn3)c2)c(Cl)c1 [VISMODEGIB]: 13
O=C(NC(=O)c1ccc(OCc2ccc(F)cc2)cc1)Nc1ccc(Cl)c(-c2nc3ccccc3[nH]2)c1: 32
COc1cc(C(=O)NC(=S)Nc2cccc(NC(=O)c3ccccc3)c2)cc(OC)c1OC: 650
Cc1ccc(NC(=S)NC(=O)c2ccc(OCc3ccccc3F)cc2)cc1-c1nc2ccccc2[nH]1: 158

Record Cc1ccc(NC(=O)NC(=O)c2ccc(OCc3ccc(F)cc3)cc2)cc1-c1nc2ccccc2[nH]1 : what is its IC50 with UniProtKB Q62226?
37

###

- EXPERIMENTAL_SYSTEM: Protein smoothened (Homo sapiens)
- Sequence (Q99835 whole entry): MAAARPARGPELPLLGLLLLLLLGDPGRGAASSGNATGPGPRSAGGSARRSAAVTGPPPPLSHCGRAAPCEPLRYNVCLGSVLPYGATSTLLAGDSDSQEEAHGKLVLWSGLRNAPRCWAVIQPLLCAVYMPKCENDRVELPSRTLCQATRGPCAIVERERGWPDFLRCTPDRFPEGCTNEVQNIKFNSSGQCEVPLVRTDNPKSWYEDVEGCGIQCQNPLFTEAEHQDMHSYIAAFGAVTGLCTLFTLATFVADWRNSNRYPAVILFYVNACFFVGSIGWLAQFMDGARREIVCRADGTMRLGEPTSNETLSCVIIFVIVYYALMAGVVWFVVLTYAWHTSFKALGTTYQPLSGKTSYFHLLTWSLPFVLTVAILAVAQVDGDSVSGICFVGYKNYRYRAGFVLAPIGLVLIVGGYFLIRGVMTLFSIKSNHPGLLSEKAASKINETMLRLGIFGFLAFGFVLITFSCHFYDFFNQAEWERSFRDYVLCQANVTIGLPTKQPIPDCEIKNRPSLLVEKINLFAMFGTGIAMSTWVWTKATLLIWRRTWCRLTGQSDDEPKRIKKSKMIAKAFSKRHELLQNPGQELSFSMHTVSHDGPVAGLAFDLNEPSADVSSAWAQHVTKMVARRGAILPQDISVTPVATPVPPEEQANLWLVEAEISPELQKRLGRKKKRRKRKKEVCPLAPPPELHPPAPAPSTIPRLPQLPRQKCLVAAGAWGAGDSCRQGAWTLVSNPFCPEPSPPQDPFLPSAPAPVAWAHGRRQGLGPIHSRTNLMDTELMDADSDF
- TEST_SUMMARY: Displacement of boron-dipyrromethene-cyclopamine from human smoothened receptor expressed in HEK293 cells incubated for 4 hrs by hSMO-BC binding assay
READOUT_NAME: pIC50
Please report pIC50 as the negative decimal logarithm of the molar concentration, giving only the number.

Consider the following illustrative entries.
O=C(NC(=O)c1ccc(OCc2ccc(F)cc2)cc1)Nc1ccc(Cl)c(-c2nc3ccccc3[nH]2)c1: 7.38
O=C(NC(=O)c1ccc(OCc2ccccc2F)cc1)Nc1ccc(Cl)c(-c2nc3ccccc3[nH]2)c1: 7.72

Could you now look at the following compound, please?
Find the recorded pIC50 belonging to COc1cc(C(=O)NC(=S)Nc2cccc(NC(=O)c3ccccc3)c2)cc(OC)c1OC and report it.
6.55

###

- TEST_SUMMARY: Antiproliferative activity against human MGC803 cells assessed as cell growth inhibition after 48 hrs by MTT assay
- Type: functional, cell-based
- CONDITION_LABEL: MGC-803, 48 h
Please use true (1) for IC50 under 3 µM and false (0) for everything else, ties included.

Solved entries (count: 7):
O=C(NC(=S)Nc1ccc(Cl)c(-c2nc3ccccc3[nH]2)c1)c1ccc(OCc2ccc(Cl)c(Cl)c2)cc1: false (0)
Cc1ccc(COc2ccc(C(=O)NC(=O)Nc3ccc(C)c(-c4nc5ccccc5[nH]4)c3)cc2)cc1: false (0)
Cc1ccc(NC(=S)NC(=O)c2ccc(OCc3cccc(F)c3)cc2)cc1-c1nc2ccccc2[nH]1: false (0)
Cc1ccc(NC(=O)NC(=O)c2ccc(OCc3cccc(Cl)c3)cc2)cc1-c1nc2ccccc2[nH]1: false (0)
O=C(NC(=O)c1ccc(OCc2ccc(F)cc2)cc1)Nc1ccc(Cl)c(-c2nc3ccccc3[nH]2)c1: true (1)
O=C(NC(=O)c1ccc(OCc2ccccc2F)cc1)Nc1ccc(Cl)c(-c2nc3ccccc3[nH]2)c1: true (1)
Cc1ccc(NC(=O)NC(=O)c2ccc(OCc3ccc(Cl)cc3Cl)cc2)cc1-c1nc2ccccc2[nH]1: true (1)

From here, focus on the item given below.
Quick check: does Cc1ccc(NC(=O)NC(=O)c2ccc(OCc3ccc(C(F)(F)F)cc3)cc2)cc1-c1nc2ccccc2[nH]1 have IC50 under 3 µM?
false (0)
